Data credit: ChEMBL document CHEMBL3045787

system: Yamadazyma tenuis; assay: Antifungal activity against Candida tenuis assessed as growth inhibition after 24 to 72 hr by serial dilution method; assay type: functional
Activity calls are given as the source filed them. The rule behind the calls is not given here.
property.measured: MIC

Below, 4 compounds whose answers are already recorded.
smiles.string	measured.value
O=C1C(SCc2ccc(Cl)cc2)=C(N2CCN(c3ccccc3F)CC2)C(=O)c2ccccc21	inactive
O=C1C(SCCOc2ccccc2)=C(SCCOc2ccccc2)C(=O)c2ccccc21	125 µg/mL
COC(=O)CCSC1=C(SCCC(=O)OC)C(=O)c2ccccc2C1=O	15.6 µg/mL
O=C1C(SCc2ccc(Cl)cc2)=C(N2CCC(C(O)(c3ccccc3)c3ccccc3)CC2)C(=O)c2ccccc21	7.8 µg/mL

With those in mind, consider the next compound.
Consider the compound `O=C1C(SCc2ccc(Cl)cc2)=C(N2CCCCC2)C(=O)c2ccccc21` . State its measured MIC.
inactive

====

tested on: Staphylococcus aureus; experiment: Antibacterial activity against Staphylococcus aureus 209-P assessed as growth inhibition after 24 to 72 hr by serial dilution method; assay type: functional
Calls of active or inactive are those of the source. The calls are words filed in the database; no cut-off is given here.

smiles.string	MIC
COC(=O)CCSC1=C(SCCC(=O)OC)C(=O)c2ccccc2C1=O	250 µg/mL
O=C1C(SCc2ccc(Cl)cc2)=C(N2CCCC2)C(=O)c2ccccc21	250 µg/mL
O=C1C(Cl)=C(Sc2c(Cl)c(Cl)c(Cl)c(Cl)c2Cl)C(=O)c2ccccc21	inactive
O=C1C(Cl)=C(N2CCC(C(O)(c3ccccc3)c3ccccc3)CC2)C(=O)c2ccccc21	inactive
